Tested on: Fer (mouse)
assay.overview: phosphorylation enrichment, bacterial display (enrichment ratio); higher = better substrate or ligand; peptides without Tyr show the background;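 further: 11-residue human phosphosite peptides and single-mutation variants displayed on the E. coli surface, counted by deep sequencing, each peptide's frequency after selection divided by its frequency in the unselected input library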;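 further: frequency after pTyr selection over input frequency; kinase dosed for 20-30% of maximal phosphorylation in three min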
So basically, the class depends on measured phosphorylation enrichment, and the ranges are low class (below 0.4), middle class (0.4 to below 1), high class (1 or more)

Examples from the recorded data:
residue.codes | category
VPDTNYTSDEE [STK33_Y439_A437T] | middle class
LAARYYNWVCF [FLT4_Y1231_S1235C] | high class
TSQSQYSSFRE [CCDC170_Y323_F324S] | middle class

Exam item: // bin(item) where item = FGGTVYHSPVS [PRC1_Y511]
Marked response: middle class

Exam item: // bin(item) where item = PESCLYKESWI [IQGAP2_Y630_L635I]
Marked response: high class

Exam item: // bin(item) where item = GDYLSYREFHS [ERBIN_Y1107]
Marked response: middle class

Exam item: // bin(item) where item = CDTKLYTSVPN [DNTTIP2_Y427_A430V]
Marked response: high class

Exam item: // bin(item) where item = LFDHIYTTQSD [RET_Y928]
Marked response: high class

Exam item: // bin(item) where item = DVMDLYKTLRG [NR3C1_Y30_F29L]
Marked response: low class

Exam item: // bin(item) where item = IDSTPYGQWFE [RPS8_Y109_R110G_YF]
Marked response: middle class

Exam item: // bin(item) where item = NKEAIYSGFIR [SMCHD1_Y283_YF]
Marked response: high class

Exam item: // bin(item) where item = NVFGNYNQQPS [HNRNPA2B1_Y306_D302V]
Marked response: low class

Exam item: // bin(item) where item = SIIKDYFHRGT [GATM_Y203_A208T]
Marked response: middle class

###

sequences and their reported phosphorylation enrichment
test.system: EPHB1 (UniProt P54762)
Sequence (P54762 whole entry, looked up): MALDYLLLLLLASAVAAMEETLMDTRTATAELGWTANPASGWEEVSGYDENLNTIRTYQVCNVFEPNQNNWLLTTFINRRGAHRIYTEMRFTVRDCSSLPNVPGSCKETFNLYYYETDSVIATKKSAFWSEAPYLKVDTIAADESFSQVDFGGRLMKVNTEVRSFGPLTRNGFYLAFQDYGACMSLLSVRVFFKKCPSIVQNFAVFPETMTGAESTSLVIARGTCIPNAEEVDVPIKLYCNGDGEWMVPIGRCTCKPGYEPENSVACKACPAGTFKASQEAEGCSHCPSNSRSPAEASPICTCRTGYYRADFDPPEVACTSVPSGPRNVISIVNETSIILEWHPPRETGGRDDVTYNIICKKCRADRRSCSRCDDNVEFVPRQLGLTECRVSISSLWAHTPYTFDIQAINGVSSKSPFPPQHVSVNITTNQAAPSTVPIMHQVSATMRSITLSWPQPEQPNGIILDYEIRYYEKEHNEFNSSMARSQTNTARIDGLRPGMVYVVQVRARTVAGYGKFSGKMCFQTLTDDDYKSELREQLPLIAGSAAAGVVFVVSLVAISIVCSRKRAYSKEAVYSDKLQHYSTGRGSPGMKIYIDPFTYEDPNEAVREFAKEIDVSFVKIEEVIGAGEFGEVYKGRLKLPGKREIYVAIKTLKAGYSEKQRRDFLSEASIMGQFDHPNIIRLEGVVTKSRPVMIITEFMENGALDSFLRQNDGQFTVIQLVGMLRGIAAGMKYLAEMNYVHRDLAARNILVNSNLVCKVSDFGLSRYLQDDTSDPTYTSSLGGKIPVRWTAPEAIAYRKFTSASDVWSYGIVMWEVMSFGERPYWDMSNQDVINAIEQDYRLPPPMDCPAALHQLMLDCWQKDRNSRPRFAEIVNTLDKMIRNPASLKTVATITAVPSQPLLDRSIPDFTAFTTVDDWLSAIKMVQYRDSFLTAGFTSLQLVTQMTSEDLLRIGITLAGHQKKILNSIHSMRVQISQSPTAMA
assay.overview: phosphorylation enrichment, bacterial display (enrichment ratio); higher = better substrate or ligand; peptides without Tyr show the background
Give only the figure.

residue.codes | phosphorylation enrichment
DFLSSYSAVNE [OAT_Y85_Q90E] | 0.504
QPGTDYKIYRY [FN1_Y1970_L1974R] | 0.383
CSRCFYQLTKL [AR_Y858_R856C] | 0.45
SNKLYYQLEQE [PDPR_Y110] | 0.903
DVSVVYSEVKT [FCRL4_Y493] | 0.631
AQQPIYVRVEG [NLRP7_Y318] | 5.88
TSYSGYRYHRH [NKAPL_Y94] | 0.536
TFGQVYKGRHV [TNIK_Y40_YF] | 0.401

Result for SVTYTYSPALN [TP53_Y126_C124Y] , tested on EPHB1 (UniProt P54762), phosphorylation enrichment: 0.95

Result for VQNIVYHTASI [CYP39A1_Y102_R103H] , tested on EPHB1 (UniProt P54762), phosphorylation enrichment: 0.375

Result for SSWPGYVRPLP [HSPB1_Y54] , tested on EPHB1 (UniProt P54762), phosphorylation enrichment: 0.48

Result for PARLEYFENEK [IRS1_Y46_YF] , tested on EPHB1 (UniProt P54762), phosphorylation enrichment: 0.714

Result for NNHGNYIVLLG [ETFDH_Y172_R175L] , tested on EPHB1 (UniProt P54762), phosphorylation enrichment: 7.55

Result for ARMTNCGLPRY [TSPAN12_Y138_Y138C] , tested on EPHB1 (UniProt P54762), phosphorylation enrichment: 0.487

Result for QNAGDYYDLYG [PTPN11_Y62_T59A] , tested on EPHB1 (UniProt P54762), phosphorylation enrichment: 15.5

Result for RKGIRYLTSGL [PIGA_Y82] , tested on EPHB1 (UniProt P54762), phosphorylation enrichment: 0.533

Result for TVLWQYTGTRP [UGT1A1_Y337_R336Q] , tested on EPHB1 (UniProt P54762), phosphorylation enrichment: 0.539

Result for FSQETYFRVSN [ABCD1_Y180_Q178E_YF] , tested on EPHB1 (UniProt P54762), phosphorylation enrichment: 1.08

Result for CTTILYNYMCN [TP53_Y234_H233L] , tested on EPHB1 (UniProt P54762), phosphorylation enrichment: 0.958

Result for NIKKEYAKMVQ [PMS2_Y181] , tested on EPHB1 (UniProt P54762), phosphorylation enrichment: 0.345
